IC50 for UniProtKB P37023 - collated from the literature.
Quick rule for you: IC50 under 200 nM gets Y, anything else gets N.

- structure-as-smiles: "CC(C)N1CCN(c2ccc(-c3cnc(N)c(C(=O)N[C@H]4CC[C@H](O)CC4)c3)c(F)c2)CC1"
  class: "N"
- structure-as-smiles: "CC(C)c1cnc(-c2ccccc2)cc1Nc1ccncc1C(=O)NC[C@H](C)O"
  class: "N"
- structure-as-smiles: "CC(C)n1cc(-c2cncc(-c3ccc4c(c3)CS(=O)(=O)N4CC3CCC3)c2)ccc1=O"
  class: "N"
- structure-as-smiles: "Cc1[nH]c2ncccc2c1-c1c[nH]c(=O)c(-c2nc3cc(N4CCN(C)CC4)ccc3[nH]2)c1"
  class: "Y"
- structure-as-smiles: "Nc1ncc(-c2ccc([C@]34C[C@H]3CN(CC(F)(F)F)C4)cc2)cc1C(=O)N[C@H]1CC[C@H](O)CC1"
  class: "Y"
- structure-as-smiles: "O=c1[nH]cc(-c2ccnc3[nH]ccc23)cc1-c1nc2cc(Oc3ccncc3)ccc2[nH]1"
  class: "Y"
- structure-as-smiles: "Nc1ncc(-c2ccc(OCCCN3CCOCC3)cc2)cc1C(=O)NC1CCCCC1"
  class: "N"
